tested on: Swiss mice; assay: Acute toxicity, single oral dose in Swiss mice; assay type: in vivo; settings: 500 mg/kg, fasted 18 hours, mortality at 14 days, values expressed as base
reported-endpoint: No. Dead/No. Treated Mice

- compound: "CCNC=Nc1cccc(-c2csc(NC(=N)N)n2)c1"
  reported-endpoint: "No. Dead/No. Treated Mice"
  val: "0/5"
- compound: "CCCNC=Nc1cccc(-c2csc(NC(=N)N)n2)c1"
  reported-endpoint: "No. Dead/No. Treated Mice"
  val: "0/5"
- compound: "CCNC=Nc1cccc(-c2nsc(NC(=N)N)n2)c1"
  reported-endpoint: "No. Dead/No. Treated Mice"
  val: "0/5"
- compound: "COCCNC=Nc1cccc(-c2csc(NC(=N)N)n2)c1"
  reported-endpoint: "No. Dead/No. Treated Mice"
  val: "0/5"
- compound: "CCCCNC=Nc1cccc(-c2csc(N=C(N)N)n2)c1"
  reported-endpoint: "No. Dead/No. Treated Mice"
  val: "4/5"

(Q) Using the record for "CC(C)NC=Nc1cccc(-c2csc(NC(=N)N)n2)c1" , report its No. Dead/No. Treated Mice.
(A) 1/5

* * *

target: histamine H2 -receptors (Cavia porcellus); construct: isolated guinea pig atria suspended in an organ bath; assay: In vitro inhibition of histamine-induced tachycardia (positive chronotropic effect) in isolated guinea pig atria; conditions: Krebs-Henseleit pH 7.4, 32° C., histamine 10^-6 g/ml, 30 min contact
reported-endpoint: pEC50
A value of pEC50 is the negative decimal logarithm of a concentration given in moles per litre.

Take a look at these entries with their results.
- molecule: "C#CCNC=Nc1cccc(-c2csc(NC(=N)N)n2)c1 [14(l)]"
  target-system: "histamine H2 -receptors (Cavia porcellus)"
  val: 5.51
- molecule: "C=CCNC=Nc1cccc(-c2csc(NC(=N)N)n2)c1 [14(j)]"
  target-system: "histamine H2 -receptors (Cavia porcellus)"
  val: 6.48
- molecule: "CN/C=N/c1cccc(-c2csc(N=C(N)N)n2)c1 [Example 14]"
  target-system: "histamine H2 -receptors (Cavia porcellus)"
  val: 6.48

(Q) Need pEC50 of CCNC=Nc1cccc(-c2csc(NC(=N)N)n2)c1 [14(a)] , thanks.
(A) 6.28

* * *

system: Swiss mice; assay: Acute toxicity, single oral dose in Swiss mice; type: in vivo; conditions: 500 mg/kg, fasted 18 hours, mortality at 14 days, values expressed as base
// No. Dead/No. Treated Mice lookup, one value per entry

Here's what some known entries look like.
- compound: "C=CCNC=Nc1cccc(-c2csc(NC(=N)N)n2)c1"
  No. Dead/No. Treated Mice: "0/5"
- compound: "N=C(N)Nc1nc(-c2cccc(N=CNCCCO)c2)cs1 [14(s)]"
  No. Dead/No. Treated Mice: "0/5"
- compound: "C#CCNC=Nc1cccc(-c2csc(NC(=N)N)n2)c1"
  No. Dead/No. Treated Mice: "0/5"
- compound: "CCC(C)NC=Nc1cccc(-c2csc(NC(=N)N)n2)c1 (stereo not drawn) [14(e)]"
  No. Dead/No. Treated Mice: "0/5"
- compound: "CC(C)CNC=Nc1cccc(-c2csc(NC(=N)N)n2)c1"
  No. Dead/No. Treated Mice: "0/5"

Kindly review the next compound as well.
(Q) What value of measured No. Dead/No. Treated Mice is listed for "CN/C=N/c1cccc(-c2csc(N=C(N)N)n2)c1" ?
(A) 0/5

* * *

Recorded measurements of EC50, one per entry
biological target: histamine H2 -receptors (Cavia porcellus, UniProt P47747); construct: isolated guinea pig atria suspended in an organ bath; assay: In vitro inhibition of histamine-induced tachycardia (positive chronotropic effect) in isolated guinea pig atria; settings: Krebs-Henseleit pH 7.4, 32° C., histamine 10^-6 g/ml, 30 min contact
Sequence (P47747 whole entry): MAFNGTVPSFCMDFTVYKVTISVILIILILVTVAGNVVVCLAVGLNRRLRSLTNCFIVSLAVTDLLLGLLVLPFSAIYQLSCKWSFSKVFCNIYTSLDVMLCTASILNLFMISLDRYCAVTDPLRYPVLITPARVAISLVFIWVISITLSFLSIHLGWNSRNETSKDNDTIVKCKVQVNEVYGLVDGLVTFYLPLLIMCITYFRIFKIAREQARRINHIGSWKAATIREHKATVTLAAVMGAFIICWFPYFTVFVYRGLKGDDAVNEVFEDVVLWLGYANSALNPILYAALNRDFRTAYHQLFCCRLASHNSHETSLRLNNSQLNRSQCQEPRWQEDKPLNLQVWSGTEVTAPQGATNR

(Q) EC50 for "CCCNC=Nc1cccc(-c2csc(NC(=N)N)n2)c1" ?
(A) 280 nM

* * *

biological target: histamine H2 -receptors (Cavia porcellus, UniProt P47747); construct: isolated guinea pig atria suspended in an organ bath; assay: In vitro inhibition of histamine-induced tachycardia (positive chronotropic effect) in isolated guinea pig atria; conditions: Krebs-Henseleit pH 7.4, 32° C., histamine 10^-6 g/ml, 30 min contact
reported-endpoint: EC50 (µM)
Give the number; µM is assumed, so skip it.

Past entries and their recorded results:
- compound: "CC(C)CNC=Nc1cccc(-c2csc(NC(=N)N)n2)c1"
  result-unit: "µM"
  EC50: 1.2
- compound: "CCCCNC=Nc1cccc(-c2csc(N=C(N)N)n2)c1"
  result-unit: "µM"
  EC50: 0.55
- compound: "N=C(N)Nc1nc(-c2cccc(N=CNCCCO)c2)cs1 [14(s)]"
  result-unit: "µM"
  EC50: 0.27
- compound: "CC(C)NC=Nc1cccc(-c2csc(NC(=N)N)n2)c1"
  result-unit: "µM"
  EC50: 0.2
- compound: "CCNC=Nc1cccc(-c2nsc(NC(=N)N)n2)c1"
  result-unit: "µM"
  EC50: 0.45

(Q) Returns the measured EC50 for the input compound. Input: "COCCNC=Nc1cccc(-c2csc(NC(=N)N)n2)c1"
(A) 0.48

(Q) Using the record for CCC(C)NC=Nc1cccc(-c2csc(NC(=N)N)n2)c1 (stereo not shown) [14(e)] , report its EC50.
(A) 0.3
